Test system: HCT-15
Assay procedure: NCI tumour cell line growth inhibition, 48 h
For each of the compounds below, state its GI50.

In: Please provide the recorded GI50 for `CC(=O)c1cccc(NC(=O)C(=O)c2c(O)oc3ccccc3c2=O)c1` , tested on HCT-15.
Out: > 100 µM

In: Please provide the recorded GI50 for CC1Cc2c(cc(N)nc2Br)NC1=O (stereo not drawn) , tested on HCT-15.
Out: > 100 µM

In: Please provide the recorded GI50 for `Cn1c(=O)c2[nH]c(/N=N\n3ccc4ccccc43)nc2n(C)c1=O` , tested on HCT-15.
Out: > 100 µM

====

For each of the compounds below, state its GI50.
Tested on: OVCAR-3
Assay procedure: NCI tumour cell line growth inhibition, 48 h
Active and inactive are the calls of the source. Rule as the data show it: active = GI50 up to about 1.1 µM and inactive = higher.

In: I have this compound here, `O/N=N\c1nc(-c2cccnc2)nc2ccccc12` , and I need its recorded GI50.
Out: > 100 µM (inactive)

In: I have this compound here, CCc1ccccc1NC(=O)C(=O)C(C#N)c1ccccc1Cl (stereo unspecified) , and I need its recorded GI50.
Out: > 100 µM (inactive)

In: I have this compound here, O=C1CC2(CCC(O)(c3cccs3)C(C(=O)c3cccs3)C2)C(=O)c2ccccc2N1 (stereo unspecified) , and I need its recorded GI50.
Out: 63.8 µM (inactive)

In: I have this compound here, `CCc1n[nH]c(=O)n1/N=C/c1ccccc1O` , and I need its recorded GI50.
Out: > 100 µM (inactive)

In: I have this compound here, O=C1C=C(C2OC(CO)C(O)C2O)C(=O)N1 (stereo unspecified) , and I need its recorded GI50.
Out: > 100 µM (inactive)

In: I have this compound here, `COC(=O)[C@@H]1Cc2ccc(OC)c(c2)OCCC(=O)N1` , and I need its recorded GI50.
Out: > 100 µM (inactive)
